Below is a list of entries, each paired with its recorded activity, negative = inhibition value.
assay: qHTS profiling for inhibitors of Plasmodium falciparum proliferation (AID 504749); note: nearly all actives have a fitted effect of over 60% in size;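 for activity, negative = inhibition: 0% = DMSO vehicle and full inhibition = artemisinin control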; conditions: P. falciparum in erythrocytes, SYBR Green DNA, 72 h; at 28.7 µM (top of the series); parasite line B
Inconclusive results are not listed.
Provide only the numeric value, understood in %.

MOLECULE	activity, negative = inhibition, %
CCC1(CC)C(=O)NC(=O)N(C)C1=O	-5

Query string: Need activity, negative = inhibition of C#CC(C)(O)CC (configuration not stated) , thanks.
Result string: -6.77

Query string: Next entry: CC(=O)OO
Result string: 13

Query string: Next entry: CCOC(=O)c1ccccc1C(=O)OCC
Result string: -4.32

Query string: Next entry: COc1ccc2c(c1OC)C(=O)OC2C1c2cc3c(cc2CCN1C)OCO3 (configuration not stated)
Result string: 3.46

Query string: Next entry: O=C(NCNC(=O)NC1C(=O)NC(=O)N1CO)NC1C(=O)NC(=O)N1CO (configuration not stated)
Result string: 8.84

Query string: Next entry: O=C(O)C(Cl)(Cl)Cl
Result string: 2

Query string: Next entry: ClC=C(Cl)Cl
Result string: 0.959

Query string: Next entry: OC(c1ccccc1)(c1ccccc1)C1CN2CCC1CC2 (configuration not stated)
Result string: -0.359

Query string: Next entry: c1cc2c(c(NC3=NCCN3)c1)CCCC2
Result string: -7.85

* * *

biological target: Arylsulfatase A (Homo sapiens); experiment: qHTS screen for enhancers of Arylsulfatase A (ASA1): LOPAC Validation Assay (AID 720538); details: ASA enzyme activity, LOPAC qHTS enhancer assay; series mostly up to 57.5 µM; note: 0% is about no effect
Inconclusive results are not listed. Activity calls are given as the source filed them. The call rests on the fitted dose curve; in most records, active means well fitted activation curve with a large enough effect; inconclusive means small, poorly fitted or top-dose-only effect; inactive means no such curve, though single readings can be large or run the other way.
Outcomes you can answer with include only these: active, inactive

Query string: Dear colleague, could you share the recorded outcome for C=CCN(C1=NCCN1)c1c(Cl)cccc1Cl when you have a moment?
Result string: inactive

* * *

test system: CP211; assay: qHTS profiling for inhibitors of Plasmodium falciparum proliferation (AID 504749); note: nearly all actives have a fitted effect of over 60% in size; conditions: P. falciparum in erythrocytes, SYBR Green DNA, 72 h; series mostly up to 28.7 µM
Results filed as inconclusive are left out. Activity calls are given as the source filed them. Calls follow the shape of the dose curve; as a rule, active = well fitted inhibition curve with a large enough effect; inconclusive = small, poorly fitted or top-dose-only effect; inactive = flat fitted curve, though single readings scatter.
Outcomes you can answer with include only these: active, inactive

COMPOUND	CATEGORY LABEL
CC[N+](C)(CC)CCOC(=O)C(O)(c1ccccc1)c1ccccc1	inactive

Query string: Dear colleague, could you share the recorded outcome for O=C(NCNC(=O)NC1C(=O)NC(=O)N1CO)NC1C(=O)NC(=O)N1CO (stereo not drawn) when you have a moment?
Result string: inactive

Query string: Next entry: S=C=S
Result string: inactive

Query string: Next entry: O=c1[nH]c(=O)n(Cl)c(=O)n1Cl
Result string: inactive

Query string: Next entry: CN1c2ccccc2C(NCCCCCCC(=O)O)c2ccc(Cl)cc2S1(=O)=O (stereo not drawn)
Result string: inactive

Query string: Next entry: CC1CCC(C(C)C)C(OC(=O)c2ccccc2N)C1 (stereo not drawn)
Result string: inactive

Query string: Next entry: O=C1C2CC=CCC2C(=O)N1SC(Cl)(Cl)Cl (stereo not drawn)
Result string: inactive

Query string: Next entry: O=C1CN=C(c2ccccc2)c2cc(Cl)ccc2N1CC1CC1
Result string: inactive

Query string: Next entry: O=[N+]([O-])c1cc(I)c(O)c(I)c1
Result string: inactive

Query string: Next entry: CCNC(C)Cc1cccc(C(F)(F)F)c1 (stereo not drawn)
Result string: inactive

Query string: Next entry: O[C@H]1[C@H]2[C@H](O)CCCN2C[C@H]1O
Result string: inactive

Query string: Next entry: [O]=[Cr](=[O])([OH])[O][Cr](=[O])(=[O])[OH]
Result string: inactive

Query string: Next entry: N#CC(C#N)=Cc1cc(O)c(O)c(O)c1
Result string: active

Query string: Next entry: ClC=C(Cl)Cl
Result string: inactive
